- System: 134 cancer cell lines
- PROTOCOL_SUMMARY: Cell viability assay (ATPlite, 72 hours), IC50 on cancer cell line panel
- CONDITION_NOTES: Homo sapiens, KATO III, read-out: IC50 in cell proliferation assay

MOLECULE: C[C@@H](Oc1cc(-c2cnn(C3CCNCC3)c2)cnc1N)c1c(Cl)ccc(F)c1Cl [crizotinib]
TARGET_ENTITY: 134 cancer cell lines
UNIT_DESCRIPTOR: µM
COMPARISON_SYMBOL: =
IC50: 1.98
//
MOLECULE: C=CC(=O)N1CCC[C@@H](n2nc(-c3ccc(Oc4ccccc4)cc3)c3c(N)ncnc32)C1 [ibrutinib]
TARGET_ENTITY: 134 cancer cell lines
UNIT_DESCRIPTOR: µM
COMPARISON_SYMBOL: =
IC50: 1.04
//
MOLECULE: CCc1cc2c(cc1N1CCC(N3CCOCC3)CC1)C(C)(C)c1[nH]c3cc(C#N)ccc3c1C2=O [alectinib]
TARGET_ENTITY: 134 cancer cell lines
UNIT_DESCRIPTOR: µM
COMPARISON_SYMBOL: >
IC50: 10
//
MOLECULE: CNC(=O)c1ccc(-c2cnc3ncc(Cc4ccc5ncccc5c4)n3n2)cc1F [capmatinib]
TARGET_ENTITY: 134 cancer cell lines
UNIT_DESCRIPTOR: µM
COMPARISON_SYMBOL: >
IC50: 31.6
